Assay: Stability in human liver S9 fraction assessed as half life at 2 uM by LC-MS/MS method
Type: ADME, tissue-based
readout_kind: half-life at 2 µM (min)
Number only, in min; omit the unit.

C[C@H](NP(=O)(OC[C@H]1O[C@@H](n2ccc(=O)[nH]c2=O)C(Cl)(Cl)[C@@H]1O)Oc1ccccc1)C(=O)OC1CCCCC1 (single isomer, unassigned) :: 3
CC[C@H](C)OC(=O)[C@H](C)NP(=O)(OC[C@H]1O[C@@H](n2ccc(=O)[nH]c2=O)C(Cl)(Cl)[C@@H]1O)Oc1ccccc1 (single isomer, unassigned) :: 7

Given the entry CC(C)OC(=O)[C@H](C)NP(=O)(OC[C@H]1O[C@@H](n2ccc(=O)[nH]c2=O)C(Cl)(Cl)[C@@H]1O)Oc1cccc(C2CCC2)c1 (single isomer, unassigned) , report its measured half-life at 2 µM.
3

---

Test system: Hepatitis C virus
Experiment: Antiviral activity against HCV genotype 1b subgenomic replicon infected in human HuH7 Luc-neo cells assessed as inhibition of viral replication by luciferase reporter gene assay
Assay type: functional, cell-based, Hepacivirus hominis
Conditions: Huh-7
pEC50: −log10 of the molar value.
Given measured pEC50, output 1.0 if it is greater than or equal to 7 and 0.0 if not.

Previously resolved entries follow.
CC(C)OC(=O)[C@H](C)NP(=O)(OC[C@H]1O[C@@H](n2ccc(=O)[nH]c2=O)C(Cl)(Cl)[C@@H]1O)Oc1cccc(C2(C)CC2)c1 (single isomer, unassigned) :: 0.0
O=c1ccn([C@@H]2O[C@H](CO)[C@@H](O)C2(Cl)Cl)c(=O)[nH]1 :: 0.0
CC(C)OC(=O)[C@H](C)N[P@@](=O)(OC[C@H]1O[C@@H](n2ccc(=O)[nH]c2=O)C(Cl)(Cl)[C@@H]1O)Oc1ccccc1 :: 1.0
CC(C)OC(=O)[C@H](C)NP(=O)(OC[C@H]1O[C@@H](n2ccc(=O)[nH]c2=O)C(Cl)(Cl)[C@@H]1O)Oc1ccc(C2(C)CC2)cc1 (single isomer, unassigned) :: 0.0

From here, focus on the item given below.
In plain terms: is recorded pEC50 at least 7 for CC(C)OC(=O)[C@H](C)NP(=O)(OC[C@H]1O[C@@H](n2ccc(=O)[nH]c2=O)C(Cl)(Cl)[C@@H]1O)Oc1cccc(C2CCC2)c1 (single isomer, unassigned) ?
0.0

---

Assay: Inhibition of HCV genotype 1b NS5B RNA dependent RNA polymerase
Design: species or system Hepatitis C virus subtype 1b
readout_kind: pKi
Remember the convention: pKi equals -log10 of concentration in molar.

Given the entry C[C@@]1(F)[C@H](O)[C@@H](COP(=O)(O)OP(=O)(O)OP(=O)(O)O)O[C@H]1n1ccc(=O)[nH]c1=O [GS-461203] , report its measured pKi.
6.31

---

Quick reference for half-life at 2 µM among some molecules
Experiment: Stability in human intestinal […] S9 fraction assessed as half life at 2 uM by LC-MS/MS method
Type: ADME
Please report the result as a number followed by the unit.

CC(C)OC(=O)[C@H](C)N[P@@](=O)(OC[C@H]1O[C@@H](n2ccc(=O)[nH]c2=O)C(Cl)(Cl)[C@@H]1O)Oc1ccccc1 :: 23 h

Given the entry C[C@H](NP(=O)(OC[C@H]1O[C@@H](n2ccc(=O)[nH]c2=O)C(Cl)(Cl)[C@@H]1O)Oc1ccccc1)C(=O)OC1CCCCC1 (single isomer, unassigned) , report its measured half-life at 2 µM.
1.17 h

Try the molecule CC[C@H](C)OC(=O)[C@H](C)NP(=O)(OC[C@H]1O[C@@H](n2ccc(=O)[nH]c2=O)C(Cl)(Cl)[C@@H]1O)Oc1ccccc1 (single isomer, unassigned)
2.33 h

Try the molecule CC(C)OC(=O)[C@H](C)NP(=O)(OC[C@H]1O[C@@H](n2ccc(=O)[nH]c2=O)C(Cl)(Cl)[C@@H]1O)Oc1cccc(C2(C)CC2)c1 (single isomer, unassigned)
0.333 h

Try the molecule CC(C)OC(=O)[C@H](C)NP(=O)(OC[C@H]1O[C@@H](n2ccc(=O)[nH]c2=O)C(Cl)(Cl)[C@@H]1O)Oc1ccc(C2(C)CC2)cc1 (single isomer, unassigned)
1 h

Try the molecule CC(C)OC(=O)[C@H](C)NP(=O)(OC[C@H]1O[C@@H](n2ccc(=O)[nH]c2=O)C(Cl)(Cl)[C@@H]1O)Oc1cccc(C2CCC2)c1 (single isomer, unassigned)
0.333 h

Try the molecule CC[C@@H](C)OC(=O)[C@H](C)NP(=O)(OC[C@H]1O[C@@H](n2ccc(=O)[nH]c2=O)C(Cl)(Cl)[C@@H]1O)Oc1ccccc1 (single isomer, unassigned)
2.33 h
